B1: TPR t1 (parent)
chain: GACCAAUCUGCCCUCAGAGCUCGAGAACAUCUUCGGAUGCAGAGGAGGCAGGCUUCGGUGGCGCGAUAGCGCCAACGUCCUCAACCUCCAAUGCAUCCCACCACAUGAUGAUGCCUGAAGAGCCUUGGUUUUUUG

Variants of: B1
Test: polymerase ribozyme fitness, log enrichment relative to wild type (log ratio); higher = more active; in vitro selection for triplet polymerase activity
result type: polymerase ribozyme fitness (log ratio)
Field format: numeric only.

Input line: For the variant GACCAAUCUCCCCACAGAGCUCGAGAACAUCUUCGGAUGCAGAGGAGACAGGCUUCGGUGGCGCGAUAGCGCCAACGUCCUCAACCUCCAAUGCAUCCCACCACAUGAUAAUGCCUGAAGAGCCUUGGUUUUUUG , give its measured polymerase ribozyme fitness (log ratio) value.
Output line: -3.91

Input line: For the variant GACCAAUCUGCCCUCAGAGCUCGAGAACAUCUUCGGAUGCAGAGGAGGCAGGCUUCGGUGGCCCGAUAGCGCCAACGUCCUCAACCUCCAAUGCAUCCCACCACAUGAUGAUGCCUGAAGAGCCUUUGUUUUUUG , give its measured polymerase ribozyme fitness (log ratio) value.
Output line: -1.97

Input line: For the variant GACCAAUCUGCCCUCAGAGCUCGAGAACAUCUUCGGAUGCAGAGGAGGCAGGCUUCGGUGGCGCGAUAGCGCCAACGUCCUCAACCUCCAAUCCAUCCUACCACAUGAUGAUGCCUGAAGAGCCUUGGUUUUUUG , give its measured polymerase ribozyme fitness (log ratio) value.
Output line: -3.93

Input line: For the variant GACCAAUCUGCCCUCAGAGCUCGAGAACAUCUUCGGAUGCAGAGGAGUCAGGCUUCGGUGGCGCGAUAGCGGCAACGUCCUCAACCUCCAAUGCAUCCCACCACAUGAUGAUGCCUGAAGAACCUUGGUUUUUUG , give its measured polymerase ribozyme fitness (log ratio) value.
Output line: -2.3

Input line: For the variant GACCAAUCUGGCCUCAGAGCUCGAGAACAUCUUCGGAUGCAGAGGAGGAAGGCUUCGGUGGCGCGAUAGCGCCGUCUUCCUCAACCUCCAAUGCAUCCCACCACAUGAUGAUGCCUGAAGAGCCUUGGUUUUUUG , give its measured polymerase ribozyme fitness (log ratio) value.
Output line: -0.693

Input line: For the variant GACCAAUCUGACCUCAGAGCUCGAGAACAUCUUCGGAUACAGAGGAGGCAGGCUUCGGUGGCGCGAUAGCGCCAACGUCCUCAACCUCCAAUGCAUCCCACCACAUGAUGAUGCCUGAAGAGCCUUGGUUUUUUG , give its measured polymerase ribozyme fitness (log ratio) value.
Output line: -2.5

Input line: For the variant GACCAAUCUACCCUCAGAGCUCGAGAACAUCUCCGGAUGCAGAGGAGGCAGGCUUCGGUGGCGCGAUAGCGCCAACGUCCUCAACCUCCGAUGCAUCCCACCACAUGAUGAUGCCUGGAGAGCCUUGGUUUUUUG , give its measured polymerase ribozyme fitness (log ratio) value.
Output line: -6.66

Input line: For the variant GACCAAUCUGCCCUAAGAGCUCGAGAACAUCUUCGGAUGCAGAGGAGGCAGGCUUCGGUGGCGCGAUAGCGCCAACGUCCUCAACCUCCAAUGCAUCCCACCACAUGAUGAUGCCUAAAGAGCCUUGGUUUUUUG , give its measured polymerase ribozyme fitness (log ratio) value.
Output line: -2.72

Input line: For the variant GACCAAUCUGUCCUCAGAGCUCGAGAACAUCUUCGGAUGCAGAGGAGGCAGGCUUCGGUGGCGCGAUAGCGCCAACGUCCUCAACCUCCAAUGCAUCCCACCACAUGAUGAUGCCUGAAGGGCCUUGGUUUUUUG , give its measured polymerase ribozyme fitness (log ratio) value.
Output line: 1.13

Input line: For the variant GGCCAAUCUGCCCUCAGAGCUCGAGAACAUCUUCGGAUGCAGAGGAGGCAGGCUUCGGUGGAGCGAUAGCGCCAACGUCCUCAACCUCCAAUGCAUCCCACCAUAUGAUGAUGCCUGAAGAGCCUUGGUUUUUUG , give its measured polymerase ribozyme fitness (log ratio) value.
Output line: -0.429

Input line: For the variant GACCCAUCUGCCCUCAGAGCUCGAGAACAUCUUCGGCUGCAGAGGAGGCAGGCUUCGGUCGCGCGAUAGCGCCAACGUUCUCAACCUCCAAUGCAUCCCACCACAUGAUGAUGCCUGAAGAGACUUGGUUUUUUG , give its measured polymerase ribozyme fitness (log ratio) value.
Output line: -0.023

Input line: For the variant GACCAAUCUGGCCUCAAAGCUCGAGAACAUCUUCGGAUGCAGAGGAGGCAGGCUUCGGUGGCGCGAUAGCGCCAACGUCCACAAUCUCCAAUGCAUCCCACCACAUGAUGAUGCCUCAAGAGCCUUGGUUUUUUG , give its measured polymerase ribozyme fitness (log ratio) value.
Output line: -4.91

Input line: For the variant GACUAAUCUGCCCUCAGAGCUCGAGAACAUUUUCGGAUGCAGAGGAGGCAGGCUUCGGUGUCGCGAUAGCGCCAACGUCCUCAACCUCCAAUGCAUCGCAACACAUGAUGAUGUCUGAAGAGCCUUGGUUUUUUG , give its measured polymerase ribozyme fitness (log ratio) value.
Output line: -6.59

Input line: For the variant GACCAAUCUGCCCUCAGAGCUCGAGAACAUAUUCGGAUGCAGAGGAGGCAGGCUUCGGUGGCUCGAUAGCGCCAACGUCCUCAACCUGCAAUGCAUCCCACCACAUGAUGAUGCCUGAAGUGCCUUGGUUUUUUG , give its measured polymerase ribozyme fitness (log ratio) value.
Output line: -6.64

Input line: For the variant GACCAAUCUGCCCUCAGAGCUCGAGAACAUCUUCGGAUGCAGAGGAGGCAGGGUUCGGUGGCGCGAUAGCGCCAACGUCCUCAACCUCCAAUGCAUCCCACCACAUGAUGAUGCCUGAAGAGCCUUGGUAUUUUG , give its measured polymerase ribozyme fitness (log ratio) value.
Output line: -0.508

Input line: For the variant GACCAAGCUGCCCUCAGAGCUCGAGAACAUCUUCGGAUGCAGAGGAGGCAGGCUUCGGUGGCGCGAUAGCGCCAACGUCCUCAACCUCCAAUGCAUCCCACCACAUGAUGAUGCCUGAAGAGCCUUGGUUUCUUG , give its measured polymerase ribozyme fitness (log ratio) value.
Output line: 0.108

Input line: For the variant GACCAAUCUGCACUAAGAGCUCGAGAACAUCUUCGGAUGCAGGGGAGGCUGGCUUCGGUGUCGCGAUAGCGCCAACGUCCUCAACCUCCAAUGCAUCCCACCACAUGAUGAUGCCUGAAGAGCCUUGGUUUUUUG , give its measured polymerase ribozyme fitness (log ratio) value.
Output line: -6.06

Input line: For the variant GACCAAUCUGCCCUUAGAGCUAGAGAACAUCUUCGGAUGCAGAGGAGGCAGGCAUCGGUGGCGCGAUAGCGCCAACGUCCUCAACCUCCAAUGCAUCCCACCACAUGAUGAUGCCUGAAGAGCAUUGGUUUUUUG , give its measured polymerase ribozyme fitness (log ratio) value.
Output line: -3.89

Input line: For the variant GACCAAUCUGCCCUCAGAGCUCGAGAACAUCUUCGGAUGCAGAGGAGGCAGGCUUCGGUCGCGCGAUAGCGCCAACGUCCUCAACCUCCAAUGCAUCCCACCACAUGAUGAUGCCUGAAGAGCGUUGGUUUUUUG , give its measured polymerase ribozyme fitness (log ratio) value.
Output line: 0.305

Input line: For the variant GAUCAAUCUGCCCUCAUAGCUCGAGAACAUCUUCGGAUGCAGAGGAAGCAGGCUUCGGUGGCGCGAUAGCGCCAACGUCCUCAACCUCCAAUGCAACCCACCACAAGAUGAUGCAUGAAGAGCCUUGGUGUUUUG , give its measured polymerase ribozyme fitness (log ratio) value.
Output line: -2.25

Input line: For the variant GACCAAUCUGCCCUCAGAGCUCGAGAACAUCUUCGGAUGCAGAGGAGGCAGGCUUUUGUGGCGCGAUAGAGCCAACGUCCUCAACCUCCAAUGCAUCCCACCACAUGAUGAUGCCUGAAGAGCCUUGGUUUUUUG , give its measured polymerase ribozyme fitness (log ratio) value.
Output line: -2.65

Input line: For the variant GACCAAUCUGCCCUCAGAGCUCGAGAACAUCUUCGGAUGCAGAGGAGUCAGGCUUCCGUGGCGCGAUAGCGCCAACGUCCUCAACCUCCAAUGCAUCCCACCACAUGAUGAUGCCUGAAGAGCCUUGGUCUUUUG , give its measured polymerase ribozyme fitness (log ratio) value.
Output line: 0.0456
